- TARGET_OF_ASSAY: T1, PACAP-R3 (human, UniProt P41587 24-438)
- T1 sequence (looked up): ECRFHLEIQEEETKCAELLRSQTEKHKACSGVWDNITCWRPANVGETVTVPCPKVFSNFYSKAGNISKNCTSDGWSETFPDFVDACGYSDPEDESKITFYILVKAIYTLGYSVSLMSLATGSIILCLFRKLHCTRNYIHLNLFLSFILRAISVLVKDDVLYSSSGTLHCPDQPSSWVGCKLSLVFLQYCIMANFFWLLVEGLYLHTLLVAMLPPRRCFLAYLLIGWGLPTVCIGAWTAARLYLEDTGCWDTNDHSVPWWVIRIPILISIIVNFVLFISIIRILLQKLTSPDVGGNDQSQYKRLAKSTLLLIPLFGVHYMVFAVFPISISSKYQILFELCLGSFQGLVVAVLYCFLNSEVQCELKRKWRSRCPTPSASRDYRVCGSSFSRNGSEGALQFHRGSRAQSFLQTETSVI
- TEST_DETAILS: cell-based or functional assay
No end group written: not given here.
MEASUREMENT_LABEL: R3 Selectivity

The cases that follow already have their R3 Selectivity on record.
HSDAVFTDNYTRLRKQMAAKKYLNSIKNVR [R3P150] : 50
HSDAVFTDNYTRLRKQMAAKKYLNSIKNPR [R3P145] : 100
HSDAVFTDNYTRLRKQMAAKKYLNSIFNKR [R3P120] : 50
HSDAVFTDNYTRLRKQMAGKKYLNSIKNKR [R3P101] : 400
HSDAVFTDNYTRLRKQMARKKYLNSIKNKR [R3P110] : 200

I. HSDAVFTDNYTRLRKQLAAKKYLNDIKK-NH2 [R3P13]
II. HSDAVFTDNYTRLRKQVAAKKYLQSIKNKRY [R3P66]
# argmax over R3 Selectivity for candidates I and II Answer by stating the label of the chosen item.
II
(II: 250, I: 33)

P. HSDAVFTDNYTRLRKQMAFKKYLNSIKNKR [R3P100]
Q. HSDAVFTDNYTRLRKQMAAKKYLNSIKNKK [R3P161]
# argmax over R3 Selectivity for candidates P and Q Answer by stating the label of the chosen item.
Q
(Q: 300, P: 30)

I. HSDAVFTDNYTRLRKQMAAKKYLNSIKNKF [R3P157]
II. HSDAVFTENYTRLRKQMAVKKYLNSLKK-NH2 [R3P7]
III. HSDAVFTDNYTRLRKQMAAKKYLNSIKNIR [R3P141]
Endpoint returns the given binders ordered by ascending R3 Selectivity. Answer format: list of labels, ordered as asked.
II, III, I
